Cited source for all entries: the supplement of paper PMC9170038

Test system: MS2 coat protein
ASSAY INFO: apparent KD of MS2 coat protein; designed switch direction (-1 OFF switch, 1 ON switch): -1; higher = weaker reporter binding
EXPERIMENTAL CONDITIONS: input ligand: FMN 200 uM
Please use criterion met whenever apparent KD of MS2 coat protein is not below 30 nM, and criterion not met whenever it is.

Sample answers from the record:
QUERY SEQUENCE | TARGET UNDER TEST | GROUP LABEL
CAGCUGAAAGUGAGGAUAUCUAGAGCGAUAGCUCUAGAGAAGGCACAUGAGGAUCACCCAUGUGAUCACAGCUG [BmEx4/7-A4] (Eterna round: R97, puzzle: Brourd's mod of Exclusion 4) | MS2 coat protein | criterion met
UUCCGGUGAGGAUAUUGCACGGUGGGAGAGAGCGCCACUGUCAAGAAGGUACAUGAGGAUCACCCAUGUGAGUA [Eternabot (L1) Solution 24] (Eterna round: R97, puzzle: Exclusion 4) | MS2 coat protein | criterion not met
AGCGAGGCAGGAUAUACAUGAGGAUCACCCAUGUACUUGUAUGGCGUGGAACAUCGUGGUAGAAGGGCCGCGCC [EX3 #79] (Eterna round: R97, puzzle: Exclusion 3) | MS2 coat protein | criterion met
GCAGGUCGAGGAUAUACAUGAGGAUCACCCAUGUGGUCACGUGACGAUAGUCACGAAUGUAGAAGGUGACCUGC [E3/3-B2] (Eterna round: R97, puzzle: Exclusion 3) | MS2 coat protein | criterion not met

Next:
Test whether the sequence AACUGUCUAGAGGAUAUGCUGGAUUAAUAUCUGGCAGAAGGUUGGACAUGAGGAUCACCCAUGUAAAUACUACC [Omei Ex6 A7] (Eterna round: R97, puzzle: Exclusion 6) records apparent KD of MS2 coat protein of 30 nM or higher.
criterion met

###

Tested on: MS2 coat protein
ASSAY INFO: apparent KD of MS2 coat protein; designed switch direction (-1 OFF switch, 1 ON switch): -1; higher = weaker reporter binding
EXPERIMENTAL CONDITIONS: input ligand: microRNA oligo, concentration not stated
List of apparent KD of MS2 coat protein values.
Give a bare numeral; the unit nM is implied.

QUERY SEQUENCE | QUANTITY MEASURED | OBS VALUE
UGAUCUAGCGGAGGAUAUACAUGAGGAUCACCCAUGUAGUUGUCUGUACCGUAGUGCAGACUUGUGUAGAAGGCCGCUAGAUCU [JL ENG2 3.62] (Eterna round: R96, puzzle: Exclusion NG 2) | apparent KD of MS2 coat protein | 9.62
GGUACUCAAAGAGUACCAAUACGAACAUGAGGAUCACCCAUGUAGGAUAUGCUACUCAAAGAGUAGCAGAAGGAUAUGAACCUU [Far Half Aptamer v9] (Eterna round: R96, puzzle: Exclusion NG 3) | apparent KD of MS2 coat protein | 15.5
GCACUUGAACAUGAGGAUCACCCAUGUGUUUUUCUUGUUCGGCAGGAUAUCGUCUAGCGCCAGGACGAGAAGGGCCAAUAAAAG [Ratiarveed] (Eterna round: R96, puzzle: Exclusion NG 3) | apparent KD of MS2 coat protein | 61
GCACGGAGUGUAGGAUAUUAGUGCGAUUAGCACUGAGAAGGACAUGAGGAUCACCCAUGUUCCUCAAUAAUUAGCCUUCCGUGC [Eli exng1 - 038] (Eterna round: R96, puzzle: Exclusion NG 1) | apparent KD of MS2 coat protein | 9.61

Okay, next one:
Recorded apparent KD of MS2 coat protein of ACAUGAGGAUCACCCAUGUGAAAACAAUGGCUGACACAGAGAUAGGAUAUAUGUGCAUAUCAAACAUAGAAGGGUCAUUACUGG [Deportation 86 - Jieux - Exclusion NG 3] (Eterna round: R96, puzzle: Exclusion NG 3) , please.
40.2

###

Test system: MS2 coat protein
ASSAY INFO: apparent KD of MS2 coat protein; designed switch direction (-1 OFF switch, 1 ON switch): -1; higher = weaker reporter binding
EXPERIMENTAL CONDITIONS: input ligand: FMN 200 uM
QUANTITY MEASURED: apparent KD of MS2 coat protein (nM)
Give a bare numeral; the unit nM is implied.

Record excerpt, results attached:
QUERY SEQUENCE | apparent KD of MS2 coat protein / nM
AGUACUAACACGUUAGUGUUAGUACAAUAAGCUUGUGAAACAUGAGGAUCACCCAUGUCCUCAUAAGCUCGUCUUAU [salish99_TOv2_r3_056] (Eterna round: R96, puzzle: Sensor v3, turn-off variant 2) | 16
UGUACCAUAGGAUAUACAUGAGGAUCACCCAUGUUAAUACGAUAUGUAAUGGUUACUUGUAGAAGGAUGAAAAG [Eternabot (L1) Solution 29] (Eterna round: R97, puzzle: Exclusion 3) | 14.9
AUUAUAAGGAGAGGAUAUCUAAUAAUAUAUAUUAGAGAAGGCUCACAUGAGGAUCACCCAUGUUUUUUUUUUUUUUUUUUUUUU [Default title] (Eterna round: R96, puzzle: Exclusion NG 1) | 89.5
AAAUUAGCAAGUAGGUCCGACAUGAGGAUCACCCAUGUUAGCUAAUCUAACGCUGCAUGAGAGUGCGCUCGUCUUAA [Sensor-V1 #20] (Eterna round: R97, puzzle: Sensor, turn-off variant 1) | 140

Okay, next one:
Recorded apparent KD of MS2 coat protein of AUGUUGUCAGGAUAUCUUACAUAACAAUCGUUGUUACCAUUGGAGAAGGGACAUGAGGAUCACCCAUGUUAACC [tap-tap-tappy45] (Eterna round: R97, puzzle: Exclusion 4) , please.
23.9

###

Tested on: MS2 coat protein
ASSAY INFO: apparent KD of MS2 coat protein; designed switch direction (-1 OFF switch, 1 ON switch): 1; higher = weaker reporter binding
EXPERIMENTAL CONDITIONS: Eterna round: R98; input ligand: none
QUANTITY MEASURED: apparent KD of MS2 coat protein

Record excerpt, results attached:
QUERY SEQUENCE | TARGET UNDER TEST | apparent KD of MS2 coat protein
UGAUCGCUUGGAGGAUAUCCAACUAUCCUAGUUGGAGAAGGCCAAGCUACAGAGCUAAGCUUGGAAGUCACUUCGGAUCAACAC [pwkr ssNG1 F9.4.1] | MS2 coat protein | 32.7 nM
UAUUGCGCCGUAAAAUAACACAUGAGGAUCACCCAUGUGACACAGGAUAUAACCAGAUCAGAAAGUUAGAAGGGUGAAAACGGC [Edraed Mod 3 - Jieux - Same State NG3] | MS2 coat protein | 30.8 nM

Okay, next one:
Recorded apparent KD of MS2 coat protein of CACACAUGGUGAGGAUAUGCAGAGGAUCACCCUGUAGAAGGCAUCAGGGUAGAAGGUGCAAGGAUCACCUGUAAGGAUAUAUCC [pwkr2 ssNG1 DX.27] , please.
1430 nM

###

Tested on: MS2 coat protein
ASSAY INFO: apparent KD of MS2 coat protein; designed switch direction (-1 OFF switch, 1 ON switch): -1; higher = weaker reporter binding
EXPERIMENTAL CONDITIONS: input ligand: none
Please use TRUE whenever apparent KD of MS2 coat protein is not below 60 nM, and FALSE whenever it is.

QUERY SEQUENCE | TARGET UNDER TEST | GROUP LABEL
CGGGCAGCAGGAUAUACAUAGGUCAACAGAAAUGAGUAUUGACAUGAGGAUCACCCAUGUAGAAGGGCUGUACC [Eternabot (L2) Solution 96] (Eterna round: R97, puzzle: Exclusion 2) | MS2 coat protein | TRUE
GCACUGCGAGGAUAUACAUGAGGAUCACCCAUGUGUCGGCAGCCAUGCCAGUACAAAUGUAGAAGGCGCGUAAA [EX3 #55] (Eterna round: R97, puzzle: Exclusion 3) | MS2 coat protein | FALSE
UACAUGAGGAUCACCCAUGUUUUGUCGUGUAUGGUAUUUAUCUAGGAUAUCAUUAUAUUUAUUUAUGAGAAGGAGAAUAUUAAU [JMF's solution 97] (Eterna round: R96, puzzle: Exclusion NG 3) | MS2 coat protein | FALSE
GGUUCGUGAGGAUAUGUGGCUUCGAUCGUGCGAAGAAGGCUACAGAAGGCACAUGAGGAUCACCCAUGUUCGUC [salish99_ex4_r4_228] (Eterna round: R97, puzzle: Exclusion 4) | MS2 coat protein | TRUE

Next:
Test whether the sequence AACUGUCUAGAGGAUAUGCUGGAUUAAUAUCUGGCAGAAGGUUGGACAUGAGGAUCACCCAUGUAAAUACUACC [Omei Ex6 A7] (Eterna round: R97, puzzle: Exclusion 6) records apparent KD of MS2 coat protein of 60 nM or higher.
FALSE

###

List of apparent KD of MS2 coat protein values.
System: MS2 coat protein
ASSAY INFO: apparent KD of MS2 coat protein; designed switch direction (-1 OFF switch, 1 ON switch): 1; higher = weaker reporter binding
EXPERIMENTAL CONDITIONS: Eterna round: R98; input ligand: none
A bare number is not enough; add the unit after it.

Record excerpt, results attached:
QUERY SEQUENCE | apparent KD of MS2 coat protein
UAUAUAUGGUGAGGAUAUGCAGAGGAUCACCCUGUAGAAGGCAUCAGGGUAGAAGGUGCAAGGAUCACCUGUAAGGAUAUAUCC [pwkr2 ssNG1 DX.30] | 1370 nM
GCAGAAGGUGCGGAGGAUCACCCUGUAAGGAUAUGCAUUAGCAAGGAUAUACAGAGGAUCACCCUGUAGAAGGUGCACUACUCA [pwkr2 ssNG3 DX.3] | 1970 nM

Okay, next one:
Recorded apparent KD of MS2 coat protein of GUAGCAUACCGAGGAUAUUCAUCCGGAUUACGGACAUGAGGAUCACCCAUGUGGCGAAAGCCUUGGGAGAAGGCGGAAUGCUAC [Xeinanis 75 33] , please.
369 nM
